System: HCC-2998 colon
Test: NCI-60 one-dose screen, 48 h
Conditions: 10 µM
The panel holds about 83,000 compounds, 20% with a hit somewhere; the sample as a whole holds those more often. Active and inactive are the calls of the source. The calls were made as follows: active = growth percent below 10; inactive = the rest.
Labels: yes for active, no for inactive

> print(dat)
                                    molecule    testedtarget  labelclass
 1  CC(C)n1c(NCCc2ccc(O)c(O)c2)nc2c1c(=O)n(C)c(=O)n2C  HCC-2998 colon          no
 2  Cc1cc(N2CCCC2)nc(N(CCCNc2ccnc3cc(Cl)ccc23)Cc2ccc3c(c2)OCO3)n1  HCC-2998 colon         yes
 3  Cn1c(Nc2ccc(C(F)(F)F)cc2)nc2cc(Oc3ccnc(-c4ncc(C(F)(F)F)[nH]4)c3)ccc21  HCC-2998 colon          no
 4  CCc1cnn2c(NCc3ccc[n+]([O-])c3)cc(N3CCCC[C@H]3CCO)nc12  HCC-2998 colon         yes
 5  Cc1nn(-c2nc3ccccc3[nH]2)c2c1C(c1ccc(OCc3ccc(F)cc3)cc1)CC(=O)N2 (stereo not given)  HCC-2998 colon          no
 6  CN1CCN(CCCOc2cccc3nc(Nc4ccc(Cl)c(C(F)(F)F)c4)ccc23)CC1  HCC-2998 colon         yes
 7  COc1ccc2c(CCCc3ccc(Cl)cc3Cl)c3[n+](cc2c1OC)CCc1cc2c(cc1-3)OCO2  HCC-2998 colon         yes
 8         CN(N)c1nc2sc3c(c2c(=O)[nH]1)CCCC3  HCC-2998 colon          no
 9  CC(N)C(Cc1ccccc1)c1ccc(Cl)cc1 (stereo not given)  HCC-2998 colon          no
10  COc1cc2c(c(OC)c1)C1c3ccccc3NC(=O)N1CC2 (stereo not given)  HCC-2998 colon          no
11  CCOC(=O)C1=C(C)N=C2Sc3cccc(OC)c3N2[C@H]1c1ccccn1  HCC-2998 colon          no
12  CN1CCN(CC(=O)Nc2ccc(-c3nc4ccccc4s3)cc2)CC1  HCC-2998 colon          no
13  COc1cc(-c2nc(C(=O)NCC(=O)O)nn2-c2ccc(Cl)cc2)cc(OC)c1OC  HCC-2998 colon          no
14  N[C@@H]1CCCN(c2c(/C=C3\SC(=O)NC3=O)cccc2-c2ccccc2)C1  HCC-2998 colon          no
15      COc1cc2nc(Nc3cccc(Cl)c3)nc(N)c2cc1OC  HCC-2998 colon         yes
16  O=C1CC(c2ccc3c(c2)OCO3)c2ncn(-c3ccc(Cl)cc3)c2N1 (stereo not given)  HCC-2998 colon          no
17  Cc1nc(Nc2n[nH]c3c2CN(C(=O)N[C@H](CN(C)C)c2ccccc2)C3(C)C)c2sccc2n1  HCC-2998 colon         yes
18  COc1ccc2c(CCC(c3ccccc3)c3ccccc3)c3[n+](cc2c1OC)CCc1cc2c(cc1-3)OCO2  HCC-2998 colon         yes
19  C/C(=C(/c1ccc(Cl)cc1)c1ccc(OCCN2CCCC2)cc1)c1ccccc1  HCC-2998 colon          no
20  C=C1CC[C@@H]2[C@](C)(COC(C)=O)[C@H](OC(C)=O)CC[C@@]2(C)[C@@H]1C/C=C1/C(=O)OC[C@H]1OC(C)=O  HCC-2998 colon          no

Measured values drawn from PubChem BioAssay (NCI) for this set.
